assay: DPPH free radical scavenging assay; conditions: Table 3; isolated compounds; means ± SD (n = 3); NA is not active; read-out: Antioxidants DPPH IC50
measured.parameter: IC50 (µM)
Respond with the bare value in µM.

Some solved cases for reference:
>  <compound>
O=c1c(O)c(-c2ccc(O)cc2)oc2cc(O)cc(O)c12 [Compound 8, kaempferol]

>  <IC50 (µM)>
326

$$$$
>  <compound>
O=C(O)/C=C/c1ccc(O)c(O)c1 [Compound 5, caffeic acid]

>  <IC50 (µM)>
47.2

$$$$
>  <compound>
O=C(O)[C@H]1O[C@@H](Oc2c(-c3ccc(O)cc3)oc3cc(O)cc(O)c3c2=O)[C@H](O)[C@@H](O)[C@@H]1O [Compound 6, kaempferol 3-O-glucuronide]

>  <IC50 (µM)>
58.8

$$$$

[ask] Returns the measured IC50 for the input compound. Input: O=C(O)c1ccc(O)c(O)c1 [Compound 1, protocatechuic acid]
[reply] 263

* * *

target: rat lens aldose reductase (RLAR) (Rattus norvegicus, UniProt P07943); test: Rat lens aldose reductase (RLAR) assay; conditions: Table 3; isolated compounds; means ± SD (n = 3); NA is not active; read-out: AR IC50
measured.parameter: pIC50
In simple prose, pIC50 is minus the logarithm base ten of a concentration in moles per litre.

>  <molecule>
O=C(O)c1ccc(O)c(O)c1

>  <pIC50>
4.77

$$$$

[ask] What value of measured pIC50 is listed for O=C(O)/C=C/c1ccc(O)c(O)c1 ?
[reply] 4.55

[ask] Here is the next molecule: O=c1c(O)c(-c2ccc(O)cc2)oc2cc(O)cc(O)c12
[reply] 5.01

[ask] Request: O=C(/C=C/c1ccc(O)c(O)c1)O[C@@H]1C[C@](O)(C(=O)O)C[C@@H](O)[C@H]1O
[reply] 6.64

[ask] Try this molecule next: O=C(O)[C@H]1O[C@@H](Oc2c(-c3ccc(O)cc3)oc3cc(O)cc(O)c3c2=O)[C@H](O)[C@@H](O)[C@@H]1O [Compound 6, kaempferol 3-O-glucuronide]
[reply] 5.22
